- assayedSystem: LC3B (mouse, UniProt Q9CQV6 1-120)
- methodNotes: ITC
endpointName: Kd

Task: Need Kd of ERDEEYGYECLDGKDCAS [GABAAR γ2 subunit GIM (GABARAP interacting motif, 398–415)] , thanks.
Output: > 300 µM

Values were extracted from paper PMC7803741.
